Below, each entry is listed with its recorded MIC.
test system: E. coli TEM-2; type: cell-based; conditions: TEM-2, class A, inhibitor constant 4 μg/mL
Quick reminder: number only, in µg/mL, skip the unit.

C[C@H]1[C@H](NC(=O)/C(=N\OC(C)(C)C(=O)O)c2csc(N)n2)C(=O)N1S(=O)(=O)O [Aztreonam, aztreonam]: 0.1

With E. coli TEM-2 as the test system, provide measured MIC for this compound: CO/N=C(\C(=O)N[C@@H]1C(=O)N2C(C(=O)O)=C(COC(C)=O)CS[C@H]12)c1csc(N)n1 [cefotaxime]
0.1

With E. coli TEM-2 as the test system, provide measured MIC for this compound: CC(C)(O/N=C(\C(=O)N[C@@H]1C(=O)N2C(C(=O)[O-])=C(C[n+]3ccccc3)CS[C@H]12)c1csc(N)n1)C(=O)O [ceftazidime]
1.6

====

tested on: E. coli TEM-1; assay type: cell-based; details: TEM-1, class A, inhibitor constant 4 μg/mL
measured-attribute: MIC (µg/mL)
// return numeric value only (unit: µg/mL, not printed)

Sample answers from the record:
CC(C)(O/N=C(\C(=O)N[C@@H]1C(=O)N2C(C(=O)[O-])=C(C[n+]3ccccc3)CS[C@H]12)c1csc(N)n1)C(=O)O [ceftazidime]: 3.2
CO/N=C(\C(=O)N[C@@H]1C(=O)N2C(C(=O)[O-])=C(C[N+]3(C)CCCC3)CS[C@H]12)c1csc(N)n1 [cefepime]: 12.8
CO/N=C(\C(=O)N[C@@H]1C(=O)N2C(C(=O)[O-])=C(C[n+]3cccc4c3CCC4)CS[C@H]12)c1csc(N)n1 [Cefpirome, cefpirome]: 25.6

Turning now to a further compound:
Report measured MIC on E. coli TEM-1; entry: C[C@H]1[C@H](NC(=O)/C(=N\OC(C)(C)C(=O)O)c2csc(N)n2)C(=O)N1S(=O)(=O)O [Aztreonam, aztreonam]
12.8

====

MIC values, listed per item
system: K. pneumoniae SHV-18; test: Synergy MIC, inhibitor at 4 μg/mL (Example 4); assay type: cell-based; conditions: SHV-18, class A, inhibitor constant 4 μg/mL
Note: unit µg/mL is implicit; provide only the numeric part.

Guide cases for MIC, answers given:
CO/N=C(\C(=O)N[C@@H]1C(=O)N2C(C(=O)O)=C(COC(C)=O)CS[C@H]12)c1csc(N)n1: 3.2
CO/N=C(\C(=O)N[C@@H]1C(=O)N2C(C(=O)O)=C(CSc3nc(=O)c(=O)[nH]n3C)CS[C@H]12)c1csc(N)n1: 6.4
CO/N=C(\C(=O)N[C@@H]1C(=O)N2C(C(=O)[O-])=C(C[n+]3cccc4c3CCC4)CS[C@H]12)c1csc(N)n1: 0.8
CO/N=C(\C(=O)N[C@@H]1C(=O)N2C(C(=O)[O-])=C(C[N+]3(C)CCCC3)CS[C@H]12)c1csc(N)n1 [cefepime]: 0.8

Now look at this one.
State its MIC for this compound: CC(C)(O/N=C(\C(=O)N[C@@H]1C(=O)N2C(C(=O)[O-])=C(C[n+]3ccccc3)CS[C@H]12)c1csc(N)n1)C(=O)O
25.6

====

target: SHV-1 (Escherichia coli, UniProt P0AD63); assay: IC50 determination, nitrocefin hydrolysis; conditions: Class A β-lactamase, 10 min pre-incubation at 37° C.
Sequence (P0AD63 22-286): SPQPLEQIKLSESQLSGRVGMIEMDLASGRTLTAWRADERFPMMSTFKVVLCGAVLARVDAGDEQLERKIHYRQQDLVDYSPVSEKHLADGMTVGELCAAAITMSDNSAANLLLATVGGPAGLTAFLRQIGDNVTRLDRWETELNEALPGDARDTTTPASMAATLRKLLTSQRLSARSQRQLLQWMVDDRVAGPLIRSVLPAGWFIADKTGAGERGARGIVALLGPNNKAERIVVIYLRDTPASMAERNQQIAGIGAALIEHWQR
measured-attribute: pIC50
// pIC50 here means minus log10 of the molar concentration (mol/L)

Quote SHV-1 (Escherichia coli, UniProt P0AD63) pIC50 for entry C/C=C1/C(=O)N2C(C(=O)O)=C3[C@@H](OC)CCC[C@@H]3[C@H]12 .
6.82

====

biological target: UniProt:P62593; assay: IC50 determination, nitrocefin hydrolysis; conditions: Class A β-lactamase, 10 min pre-incubation at 37° C.
Sequence (P62593 24-286 limits assumed): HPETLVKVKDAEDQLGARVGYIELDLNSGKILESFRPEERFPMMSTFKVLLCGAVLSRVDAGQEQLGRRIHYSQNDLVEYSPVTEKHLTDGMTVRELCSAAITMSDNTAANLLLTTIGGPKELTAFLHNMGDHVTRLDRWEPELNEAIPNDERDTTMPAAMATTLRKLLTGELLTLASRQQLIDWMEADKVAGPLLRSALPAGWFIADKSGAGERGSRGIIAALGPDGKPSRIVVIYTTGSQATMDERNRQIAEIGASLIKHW
measured-attribute: pIC50
By convention, pIC50 is the negative base-10 log of a molar concentration.

Provide pIC50, tested on UniProt:P62593, for C/C=C1/C(=O)N2C(C(=O)O)=C3[C@@H](OC)CCC[C@@H]3[C@H]12 [Compound 1a] .
7.26

====

molecular target: UniProt:P05364; conditions: Class C β-lactamase; 10 min pre-incubation at 37° C., nitrocefin
Sequence (P05364 21-381): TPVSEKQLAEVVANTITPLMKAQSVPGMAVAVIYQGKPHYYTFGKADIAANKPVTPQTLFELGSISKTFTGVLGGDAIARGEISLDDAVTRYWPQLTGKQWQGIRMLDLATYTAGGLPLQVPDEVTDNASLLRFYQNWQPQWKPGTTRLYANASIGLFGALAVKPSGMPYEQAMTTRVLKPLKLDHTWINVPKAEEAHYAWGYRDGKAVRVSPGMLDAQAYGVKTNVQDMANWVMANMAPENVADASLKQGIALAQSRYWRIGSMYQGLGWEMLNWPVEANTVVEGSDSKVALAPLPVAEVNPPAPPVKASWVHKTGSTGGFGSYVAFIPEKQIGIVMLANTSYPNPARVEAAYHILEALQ
measured-attribute: IC50 (nM)
Write the value in nM as a bare number.

Report IC50, nothing else, for this compound: C/C=C1/C(=O)N2C(C(=O)O)=C3[C@@H](OC)CCC[C@@H]3[C@H]12
62

====

The following molecules are shown together with reported MIC values.
test system: E. cloacae AmpC; assay: Synergy MIC, inhibitor at 4 μg/mL (Example 4); format: cell-based, Enterobacter Cloacae; conditions: class C, first listed, inhibitor constant 4 μg/mL
Give the number; µg/mL is assumed, so skip it.

Below, 2 molecules whose answers are already recorded.
CO/N=C(\C(=O)N[C@@H]1C(=O)N2C(C(=O)[O-])=C(C[n+]3cccc4c3CCC4)CS[C@H]12)c1csc(N)n1 [Cefpirome, cefpirome]: 6.4
CO/N=C(\C(=O)N[C@@H]1C(=O)N2C(C(=O)[O-])=C(C[N+]3(C)CCCC3)CS[C@H]12)c1csc(N)n1 [cefepime]: 0.8

# ---- query molecule ----
Return MIC (reported value) for this molecule: C[C@H]1[C@H](NC(=O)/C(=N\OC(C)(C)C(=O)O)c2csc(N)n2)C(=O)N1S(=O)(=O)O [Aztreonam, aztreonam]
25.6

====

tested on: E. cloacae AmpC; assay: Synergy MIC, inhibitor at 4 μg/mL (Example 4); type: cell-based, Enterobacter Cloacae; settings: class C, second listed, inhibitor constant 4 μg/mL
Readings of MIC for the listed molecules

In the examples that follow, each entry is paired with its recorded MIC.
C[C@H]1[C@H](NC(=O)/C(=N\OC(C)(C)C(=O)O)c2csc(N)n2)C(=O)N1S(=O)(=O)O: > 25.6 µg/mL
CC(C)(O/N=C(\C(=O)N[C@@H]1C(=O)N2C(C(=O)[O-])=C(C[n+]3ccccc3)CS[C@H]12)c1csc(N)n1)C(=O)O: > 25.6 µg/mL
CO/N=C(\C(=O)N[C@@H]1C(=O)N2C(C(=O)O)=C(CSc3nc(=O)c(=O)[nH]n3C)CS[C@H]12)c1csc(N)n1: > 25.6 µg/mL
CO/N=C(\C(=O)N[C@@H]1C(=O)N2C(C(=O)O)=C(COC(C)=O)CS[C@H]12)c1csc(N)n1: > 25.6 µg/mL
CO/N=C(\C(=O)N[C@@H]1C(=O)N2C(C(=O)[O-])=C(C[n+]3cccc4c3CCC4)CS[C@H]12)c1csc(N)n1: 3.2 µg/mL

# next molecule below
Identify MIC associated with the molecule CO/N=C(\C(=O)N[C@@H]1C(=O)N2C(C(=O)[O-])=C(C[N+]3(C)CCCC3)CS[C@H]12)c1csc(N)n1 [cefepime]
1.6 µg/mL

====

system: E. coli SHV-3; experiment: Synergy MIC, inhibitor at 4 μg/mL (Example 4); type: cell-based; details: SHV-3, class A, inhibitor constant 4 μg/mL
measured-attribute: MIC
Hey, just the number and the unit after it is fine.

// solved cases for MIC follow
CO/N=C(\C(=O)N[C@@H]1C(=O)N2C(C(=O)[O-])=C(C[N+]3(C)CCCC3)CS[C@H]12)c1csc(N)n1 [cefepime]: 0.4 µg/mL
CO/N=C(\C(=O)N[C@@H]1C(=O)N2C(C(=O)[O-])=C(C[n+]3cccc4c3CCC4)CS[C@H]12)c1csc(N)n1: 0.8 µg/mL
CO/N=C(\C(=O)N[C@@H]1C(=O)N2C(C(=O)O)=C(CSc3nc(=O)c(=O)[nH]n3C)CS[C@H]12)c1csc(N)n1: 3.2 µg/mL

State, in one line, measured MIC of CC(C)(O/N=C(\C(=O)N[C@@H]1C(=O)N2C(C(=O)[O-])=C(C[n+]3ccccc3)CS[C@H]12)c1csc(N)n1)C(=O)O
0.8 µg/mL

Fill in reported MIC for this entry: CO/N=C(\C(=O)N[C@@H]1C(=O)N2C(C(=O)O)=C(COC(C)=O)CS[C@H]12)c1csc(N)n1
3.2 µg/mL

Supply measured MIC of C[C@H]1[C@H](NC(=O)/C(=N\OC(C)(C)C(=O)O)c2csc(N)n2)C(=O)N1S(=O)(=O)O in your reply.
0.4 µg/mL

====

test system: E. coli TEM-2; type: cell-based; details: TEM-2, class A, inhibitor constant 4 μg/mL
measured-attribute: MIC

CO/N=C(\C(=O)N[C@@H]1C(=O)N2C(C(=O)[O-])=C(C[n+]3cccc4c3CCC4)CS[C@H]12)c1csc(N)n1: ≦0.025
CO/N=C(\C(=O)N[C@@H]1C(=O)N2C(C(=O)O)=C(CSc3nc(=O)c(=O)[nH]n3C)CS[C@H]12)c1csc(N)n1: ≦0.025
CO/N=C(\C(=O)N[C@@H]1C(=O)N2C(C(=O)[O-])=C(C[N+]3(C)CCCC3)CS[C@H]12)c1csc(N)n1 [cefepime]: ≦0.025

====

test system: E. cloacae AmpC; test: Synergy MIC, inhibitor at 4 μg/mL (Example 4); type: cell-based, Enterobacter Cloacae; details: class C, first listed, inhibitor constant 4 μg/mL
measured-attribute: MIC

Would you please look over these solved cases?
CC(C)(O/N=C(\C(=O)N[C@@H]1C(=O)N2C(C(=O)[O-])=C(C[n+]3ccccc3)CS[C@H]12)c1csc(N)n1)C(=O)O: > 25.6 µg/mL
CO/N=C(\C(=O)N[C@@H]1C(=O)N2C(C(=O)O)=C(CSc3nc(=O)c(=O)[nH]n3C)CS[C@H]12)c1csc(N)n1: > 25.6 µg/mL

Now take the following compound into account.
Please report MIC for the following compound: CO/N=C(\C(=O)N[C@@H]1C(=O)N2C(C(=O)O)=C(COC(C)=O)CS[C@H]12)c1csc(N)n1
> 25.6 µg/mL

Source of measurements: patent US20100029604A1
